- System: CNS cancer cell SF-268
- PROTOCOL SUMMARY: Preliminary cytotoxicity test
- Type: cell-based, human
Consider the cut-off 90%. If the recorded Growth percentage is strictly smaller, the label is YES; if not, the label is NO.

Below are worked cases with known answers.
> print(dat)
                                   compound           target.entity  class.label
1  N#Cc1ccccc1C#CC=CC#Cc1cccs1 [Compound 29]  CNS cancer cell SF-268           NO
2  N#Cc1ccccc1C#CC=CC#Cc1ccccn1 [Compound 27]  CNS cancer cell SF-268          YES
3  N#Cc1ccccc1C#CC=CC#Cc1cnccn1 [Compound 30]  CNS cancer cell SF-268          YES
4  FC(F)(F)c1ccc(C#Cc2ccccc2C#Cc2ccc(C(F)(F)F)cc2)cc1 [Compound 42]  CNS cancer cell SF-268          YES

In plain terms, does Cc1ccc(C#CC=CC#Cc2ccccc2C#N)cc1 [Compound 28] come in under 90% for Growth percentage?
NO
